Give measured growth inhibition for each item. Keep answers brief.
- ASSAY_REMARKS: NCI Yeast Anticancer Drug Screen. Data for the bub3 strain (AID 167)
- MEASUREMENT_CONDITIONS: S. cerevisiae bub3 mutant strain, at 5.0 µM (retest, dose inferred, filed as 0.5), active compounds read high
About 79,000 compounds went through this panel and 15% of them were active in at least one assay; those are over-represented in the sample as a whole.
Only the number, expressed in %, is required.

molecule `CCOC(=O)c1sc2c(c1O)c(=O)n(-c1ccccc1)c(=S)n2-c1ccccc1` , growth inhibition observed: 47

The molecule N#CC(NNC(=O)c1ccccc1O)c1c(O)ccc2ccccc12 (stereo not drawn) showed growth inhibition equal to 17

Query C=CCC1(OC(C)=O)CC2C(=O)C(=O)C(C1)N2OC(=O)c1ccccc1 (stereo not drawn) yields growth inhibition of -1

So, `Oc1ccc(-c2nnc(-c3ccccc3)nn2)cc1` ? Its growth inhibition was -47

growth inhibition recorded for this molecule, `C#CCN1CCN(C(=S)N/N=C(\C)c2ccccn2)CC1` , is 14

Entry `COC(=O)c1nc(=S)[nH]c(C(=O)OC)c1C(=O)C(C)(C)C` ; growth inhibition = 5

So for `CCC(=O)OC1=C(Br)C(=O)c2ccccc2C1=O` , the logged growth inhibition turned out to be 18

get_value(item= `NC(=S)N1N=C2c3ccccc3CCC[C@H]2[C@@H]1c1ccccc1` , readout=growth inhibition) returns 25

The reported value for CN(C)CCOC1OCN(C)CC1(C)C (stereo not drawn) in terms of growth inhibition is -2

Value of growth inhibition reported for the molecule `CCCCN(CCCC)CN1C(=O)/C(=C/c2ccc(NC(C)=O)cc2)NC1=S` is -15

OC(C1CCC=NN1C(O)(C(F)(F)F)C(F)(F)F)(C(F)(F)F)C(F)(F)F (stereo not drawn) has a reported growth inhibition of -6

Note to self: growth inhibition recorded for CC12CCC(=O)C=C1C=CC1C2CCC2(C)C1CCC21CCC(=O)O1 (stereo not drawn) was -1

For `CCc1ccc(C(=O)O)cc1` the molecule record lists growth inhibition as -6

growth inhibition for `CCOc1ccccc1/C=N/Nc1nnc(N/N=C/c2ccccc2OCC)c2ccccc12` is -4

growth inhibition in this record for `CCN(CC)C(=S)N=Nc1c(O)[nH]c2ccccc12` : 76

For this molecule ( O=C(O)C1C(=O)OC2CCCCC21 (stereo not drawn) ), measured growth inhibition is 0

Reported growth inhibition for `Cc1cccnc1NC(=S)Nc1ccccc1Cl` was 18

Reported growth inhibition of `CCOCCOc1ccc(OCCOCC)cc1` : -8

Item: `CC(C)=CCc1c2c(c3occ(-c4ccc(O)c(O)c4)c(=O)c3c1O)C=CC(C)(C)O2` | growth inhibition: -7

growth inhibition reading for `CCO/C=C1N=C(/C=C/c2ccc(Cl)cc2)OC/1=O` : 14

growth inhibition for `O=C1Nc2c(ccc(Cl)c2I)C1=O` is -5

# molecule Cc1ccc(NC(=O)CC2SC(N)=NC2=O)cc1C (stereo not drawn) ; its growth inhibition = 0

// field: growth inhibition; key: `COC(=O)c1nc(NC#N)[nH]c(=O)c1CCCCCc1cnc(NC#N)nc1` ; value = 0

growth inhibition reading for `Cc1cc(Cl)c2c(c1)C(=O)/C(=C/c1ccc(Cl)cc1)O2` : -22

The molecule identified as CC1=C(C(=O)OC(C)C)C(c2ccccc2[N+](=O)[O-])C(C(=O)OC(CO[N+](=O)[O-])CO[N+](=O)[O-])=C(C)N1 (stereo not drawn) registered its growth inhibition at -5

For O=C1OC(CC(=O)c2ccccc2Cl)C(Cl)=C1Cl (stereo not drawn) the molecule record lists growth inhibition as 1

growth inhibition reading for `S=C1NCCNC(=S)SS1` : 10

growth inhibition in this record for OC(CBr)c1c(Br)ccc2ccccc12 (stereo not drawn) : -1

Reported growth inhibition for `CN(C)C1=NC(N(C)C)=C2C=CC=C12` was 2

In plain terms, `O=C(C=P(c1ccccc1)(c1ccccc1)c1ccccc1)c1ccc(Cl)cc1` has a documented growth inhibition of 16

Form field growth inhibition, entry C=C1CC23CCC4C(C)(C(=O)O)CCCC4(C)C2CCC1C3 (stereo not drawn) : 13

// recorded growth inhibition for `CCOC(=O)C(C(=O)OCC)c1ccc([N+](=O)[O-])o1` : 0

Record `CN(C)CCOC(=O)c1ccccc1` , field growth inhibition: -7

Recorded growth inhibition (molecule O=C1CSC(c2ccccc2O)N1c1ccc(-n2c(-c3ccccc3)nc3ccccc3c2=O)cc1 (stereo not drawn) ): -13

Item: `O=S(=O)(SCc1ccccc1)C(c1ccccc1)c1ccccc1` | growth inhibition: 13

CCCCCCCCCCCCCC1OC(=O)C(C)=C1C(=O)O (stereo not drawn) yielded growth inhibition of -17

get_value(item= `O=[N+]([O-])c1ccc(CO)o1` , readout=growth inhibition) returns 0

Notebook: `CC(=O)Oc1c(Br)ccc2cc(C(Br)Br)c(C(=O)c3ccccc3)nc12` , growth inhibition read as 25

Recorded growth inhibition (molecule `O=c1cccccc1[O-].O=c1cccccc1[O-].O=c1cccccc1[O-].[Nd+3]` ): 9

Field growth inhibition (entry `Cn1cc(-c2c3c(cc4c2OCO4)OCO3)c2ccccc21` ) reads -2

Noted for CCCCCC(C)NCC(O)Cc1ccc(OCCCC)cc1 (stereo not drawn) : its growth inhibition reads 42

Recorded result, CC1(C)C2CCC1(CS(=O)O)C(=O)C2.[Ag] (stereo not drawn) , growth inhibition: 99

Lab note: `CCN(CC)C(=S)N/N=C/c1cc(OC)ccc1O` gave growth inhibition of -38

For record O=C1C2C3CCC(O3)C2C(=O)N1c1cccc2ccccc12 (stereo not drawn) the listed growth inhibition is 0

Given item `O=C(/C=C/c1ccccc1)CCN1CCOCC1` , the value recorded as its growth inhibition is 35

Looking up `O=[N+]([O-])c1ccc(Sc2ccc([N+](=O)[O-])o2)o1` , I see its growth inhibition listed as 96

Noted for `S=C(S)NCCN1CCNC1=S` : its growth inhibition reads 14

Quick note, growth inhibition for `Cc1ccc2c(c1)[n+]([O-])c(N)n[n+]2[O-]` landed at -7

====

- ASSAY_REMARKS: NCI Yeast Anticancer Drug Screen. Data for the rad50 strain (AID 155);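 also: 0% = growth of vehicle-only cultures of the same strain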
- MEASUREMENT_CONDITIONS: S. cerevisiae rad50 strain growth inhibition; at 50.0 µM; active compounds read high
About 79,000 compounds went through this panel and 15% of them were active in at least one assay; those are over-represented in the sample as a whole.
Assign growth inhibition to each entry below.
Number in %, nothing else.

So for `COc1cc(C2C(C(=O)Nc3ccc(Cl)c(Cl)c3)=C(C)NC(C)=C2C(=O)Nc2ccc(Cl)c(Cl)c2)ccc1O` , the logged growth inhibition turned out to be 91

Summary for this compound, `Cc1cccnc1NC(=S)Nc1ccccc1Cl` : growth inhibition is 89.5

Looking up `Cc1cc(N)c2cc(NC(=O)Nc3ccc4nc(C)cc(N)c4c3)ccc2n1` , I found its growth inhibition recorded as 99

The compound identified as `COc1ccc2c(Cc3ccc(O)cc3)cncc2c1O` registered its growth inhibition at 8.65

Memo: `COC(=O)c1nc(NC#N)[nH]c(=O)c1CCCCCc1cnc(NC#N)nc1` , reported growth inhibition: -2.4

Item: `FC(F)(F)c1cccc(COCCN2CCN(Cc3cccc(C(F)(F)F)c3)CC2)c1` | growth inhibition: 97.7

Reported growth inhibition of `Cc1ccc2[nH]c3c(c2c1)[n+]([O-])c1ccccc1[n+]3[O-]` : -17.4

Notebook: `O=C(O)c1cc2oc(-c3ccccc3)cc2[nH]1` , growth inhibition read as 72.5

Per the record, CN1c2ccccc2C(c2ccccc2)c2ccc(Nc3ccccc3)cc21 (stereo unspecified) has growth inhibition of 97.7

Record summary for `O=[N+]([O-])c1nccn1CCCNCCCn1ccnc1[N+](=O)[O-]` : reported growth inhibition = 0.45

Record `O=C(O)CCCCCCCCC(=O)CCl` , field growth inhibition: 98.8

====

- ASSAY_REMARKS: NCI Yeast Anticancer Drug Screen. Data for the rad50 strain (AID 155);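 also: 0% = growth of vehicle-only cultures of the same strain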
- MEASUREMENT_CONDITIONS: S. cerevisiae rad50 strain growth inhibition; at 5.0 µM (retest, dose inferred, filed as 0.5); active compounds read high
This is part of a sample that, as a whole, favours compounds with a hit. Of some 79,000 tested, about 15% had one in any assay.
ENDPOINT_NAME: growth inhibition (%)
Please give a number only; it is taken to be in %.

// growth inhibition lookup, compound = `O=C(OCc1ccccc1CN1CCOCC1)c1ccc(Br)cc1` , result: -30

For reference, reported growth inhibition for O=C(O)c1c2c(cc3c1CC1(Cc4ccccc4C1=O)C3)CCC2 (stereo unspecified) stands at 7

Looking up CN/N=C(\C)C(CN1CCCCC1)C(C1=C(O)c2ccccc2OC1)c1ccccc1 (stereo unspecified) , I see its growth inhibition listed as 25

Given item `Clc1ccccc1C=Nc1cccc2ccccc12` , the value recorded as its growth inhibition is -10

Measured growth inhibition of `COc1nc(N)c(N=O)c(OCc2ccccc2)n1` : 83

Reported growth inhibition for `CCCCCCCCCCCC(=O)OCCOC(=O)CCCCCCCCCCC` was -8

Record `CC(C)(CC#N)c1cc(CC(C)(C)c2cc(CC(C)(C)c3cc(CC(C)(C)C4(C)OCCO4)no3)no2)no1` , field growth inhibition: -2

The compound CC1=NOC(=O)C1N=Nc1ccc(Br)cc1C (stereo unspecified) showed growth inhibition equal to 99

response.value for `C(=Nc1ccccc1)c1cn(Cc2ccccc2)c2ccccc12` (field: growth inhibition) = 90

Reported growth inhibition of `CC(=O)OCC(C(N)=O)(c1ccccc1)c1ccccc1` : -5

Just so you know, measured growth inhibition for NC(=O)C1(Br)C=[N+](Cc2ccccc2)CCC1 (stereo unspecified) came out at 0

meta.source: PubChem BioAssay (NCI)
